- System: HT29 colon
- protocol.details: NCI tumour cell line growth inhibition, 48 h
endpoint.name: TGI

Some solved entries appear below for comparison.
{"compound": "O=S(=O)(O)c1ccc(N=Nc2ccc(N=Nc3c(O)ccc4ccccc34)cc2)cc1", "result": "> 100 µM"}
{"compound": "CC(=O)OC12c3ccccc3-c3ccccc3C1C1C(=O)N(C)C(=O)C12Cl (stereo not given)", "result": "> 10 µM"}
{"compound": "O=C(CC(O)(C(F)(F)F)C(F)(F)F)c1cc(CC(=O)C(O)(C(F)(F)F)C(F)(F)F)cc(CC(=O)C(O)(C(F)(F)F)C(F)(F)F)c1", "result": "4.28 µM"}
{"compound": "COc1ccc(/C(=N\\NC(=O)C(N)=O)C(c2ccc(OC)cc2)C2(O)C(=O)Nc3c(Cl)cccc32)cc1 (stereo not given)", "result": "> 100 µM"}

Record "COc1ccc(-c2nc(SCC(=O)N/N=C/c3ccc(O)c(OC)c3)[nH]c2-c2ccc(OC)cc2)cc1" / HT29 colon, TGI recorded as 46.1 µM
